Data origin, for the record: patent US9000022B2

- System: LXRα and/or LXRβ
- Experimental Protocol: Co-transfection assay (LXRE luciferase reporter, CV-1 cells)
- Type: cell-based, human
- Measurement Parameters: tested as described in Example 33; IC50 or EC50 for LXRα and/or LXRβ, isoform not specified; read-out: activity (IC50 or EC50 for LXR)
// reported IC50 or EC50 (potency, activation or inhibition) for each item listed

Solved cases below.
Query Smiles: CCS(=O)(=O)c1cccc(-c2ccc(-n3cc(C(C)(C)O)nc3-c3c(F)cccc3Cl)cc2)c1
Meas Value: 1 to 10 µM

Query Smiles: CC(C)(O)c1cn(-c2ccc(-c3cccc(S(C)(=O)=O)c3)cc2F)c(Cc2cccc(Cl)c2Cl)n1
Meas Value: < 1 µM

Query Smiles: CCC(O)(CC)c1cn(-c2ccc(-c3cccc(S(C)(=O)=O)c3)cc2)c(-c2cccc(Cl)c2Cl)n1
Meas Value: < 1 µM

Query Smiles: Cc1cc(-c2cccc(S(C)(=O)=O)c2)ccc1-c1nc(C(C)(C)O)cn1-c1c(Cl)cccc1Cl
Meas Value: < 1 µM

Query Smiles: CC(C)(O)c1cn(-c2ccc(-c3cccc(CO)c3)cc2)c(-c2cccc(Cl)c2Cl)n1
Meas Value: 1 to 10 µM

# input molecule: CCS(=O)(=O)c1cccc(-c2ccc(-n3cc(C(C)(C)O)nc3-c3c(C)cccc3Cl)cc2)c1 ; wanted: its IC50 or EC50 (potency, activation or inhibition)
1 to 10 µM

Any idea what IC50 or EC50 (potency, activation or inhibition) was measured for CCS(=O)(=O)c1cccc(-c2ccc(-c3nc(C(C)(C)O)cn3-c3c(Cl)cccc3Cl)c(Cl)c2)c1 ?
< 1 µM
